All values here come from ChEMBL document CHEMBL3585321.

tested on: Staphylococcus aureus; test: Antibacterial activity against methicillin-resistant Staphylococcus aureus GRE2372 assessed as inhibition of bacterial growth; assay type: functional, organism-based
Activity calls are given as the source filed them. No cut-off for these calls is given here.
Pick one and only one: Y (active), N (inactive)

Entry NC[C@H]1O[C@H](O[C@H]2[C@H](O)[C@@H](O[C@H]3O[C@H](CO)[C@@H](O)[C@H](N)[C@H]3O)[C@H](N)C[C@@H]2N)[C@H](O)[C@@H](O)[C@@H]1O : call = ? N

Entry CN[C@H](CC(C)C)C(=O)N[C@H]1C(=O)N[C@@H](CC(N)=O)C(=O)N[C@H]2C(=O)N[C@H]3C(=O)N[C@H](C(=O)N[C@H](C(=O)O)c4cc(O)cc(O)c4-c4cc3ccc4O)[C@H](O)c3ccc(c(Cl)c3)Oc3cc2cc(c3O[C@@H]2O[C@H](CO)[C@@H](O)[C@H](O)[C@H]2O[C@H]2C[C@](C)(N)[C@H](O)[C@H](C)O2)Oc2ccc(cc2Cl)[C@H]1O : call = ? Y

Entry CCC[C@@H]1C[C@@H](C(=O)N[C@@H]([C@H]2O[C@H](SC)[C@H](O)[C@@H](O)[C@H]2O)[C@H](C)Cl)N(C)C1 : call = ? N
